Molecular target: HPK1 (Homo sapiens)
Construct: A HiBiT tag was introduced by CRISPR on the N terminus of HPK1 in Jurkat cells; host or cells: Jurkat cells (ATCC TIB-152), monoclonal line with CRISPR knock-in of HiBiT at the endogenous HPK1 locus
Sequence (Q92918 whole entry): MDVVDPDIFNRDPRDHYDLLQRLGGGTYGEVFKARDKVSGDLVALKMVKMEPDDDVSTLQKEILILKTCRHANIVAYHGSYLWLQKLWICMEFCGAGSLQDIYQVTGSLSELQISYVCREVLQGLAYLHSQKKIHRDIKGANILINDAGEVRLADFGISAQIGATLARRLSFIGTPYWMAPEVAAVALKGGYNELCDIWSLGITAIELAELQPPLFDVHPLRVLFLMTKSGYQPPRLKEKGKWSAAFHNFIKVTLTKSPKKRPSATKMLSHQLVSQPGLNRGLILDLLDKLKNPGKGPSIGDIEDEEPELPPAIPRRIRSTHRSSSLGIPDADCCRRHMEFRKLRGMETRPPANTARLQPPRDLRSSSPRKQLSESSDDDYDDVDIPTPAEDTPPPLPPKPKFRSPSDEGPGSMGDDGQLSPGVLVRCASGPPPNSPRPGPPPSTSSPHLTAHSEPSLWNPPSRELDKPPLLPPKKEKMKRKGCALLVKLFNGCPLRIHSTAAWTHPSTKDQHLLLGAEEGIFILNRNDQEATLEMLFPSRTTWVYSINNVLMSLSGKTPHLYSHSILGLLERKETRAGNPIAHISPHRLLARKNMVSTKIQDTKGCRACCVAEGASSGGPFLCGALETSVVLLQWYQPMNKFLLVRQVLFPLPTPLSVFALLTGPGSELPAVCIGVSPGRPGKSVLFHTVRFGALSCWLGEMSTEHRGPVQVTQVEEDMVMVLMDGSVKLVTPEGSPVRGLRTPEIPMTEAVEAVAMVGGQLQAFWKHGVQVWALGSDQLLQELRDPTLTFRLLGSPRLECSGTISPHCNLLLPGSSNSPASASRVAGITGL
Assay: HPK1 Cellular HiBit Degradation Assay
Type: cell-based
Details: Jurkat, HiBiT HPK1 Jurkat cells, 24 hrs; maximum degradation vs DMSO vehicle control; read-out: Dmax Category
observation-type: Dmax

Guide cases for Dmax, answers given:
CC(C)n1cnc2cc(-c3ccc4c(c3)N([C@H]3C[C@@H](N5CCCCC5)C3)C(=O)C43CCN(C(=O)C4(C)CCN(CC5CCN(c6ccc(C7CCC(=O)NC7=O)cn6)CC5)CC4)CC3)nc(NC3CC3)c21 (mixture of isomers) [Example 225]    50 to 70%
CC(C)n1cnc2cc(-c3ccc4c(c3)N([C@H]3C[C@@H](N5CCCCC5)C3)C(=O)C43CCN(C(=O)[C@@H]4CCCN(C(=O)C5CCN(c6ccc(C7CCC(=O)NC7=O)cn6)CC5)C4)CC3)nc(NC3CC3)c21 (mixture of isomers) [Example 264]    70 to 85%
CC(C)n1cnc2cc(-c3ccc4c(c3)N([C@H]3C[C@@H](N5CCCCC5)C3)C(=O)C43CCN(C(=O)C4(C)CCN(C(=O)CC5CCN(c6ccc(C7CCC(=O)NC7=O)cn6)CC5)CC4)CC3)nc(NC3CC3)c21 (mixture of isomers) [Example 221]    70 to 85%

Report Dmax for CC(C)n1cnc2cc(-c3ccc4c(c3)N([C@H]3C[C@@H](N5CCCCC5)C3)C(=O)C43CCN(C(=O)C4CCN(C(=O)[C@H]5CC[C@H](Nc6cc(C7CCC(=O)NC7=O)ccn6)CC5)CC4)CC3)nc(Nc3ccccc3F)c21 (mixture of isomers) [Example 52] tested on HPK1 (Homo sapiens).
50 to 70%

Report Dmax for CC(C)n1cnc2cc(-c3ccc4c(c3)N([C@H]3C[C@@H](N5CCCCC5)C3)C(=O)C43CCN(C(=O)C4C5CC4CN(C(=O)[C@H]4CC[C@H](Oc6ccc(C7CCC(=O)NC7=O)cc6)CC4)C5)CC3)nc(NC3CC3)c21 (some centres unmarked) [Example 241] tested on HPK1 (Homo sapiens).
> 85%

Report Dmax for CC(C)n1cnc2cc(-c3ccc4c(c3)N([C@H]3C[C@@H](N5CCCCC5)C3)C(=O)C43CCN(C(=O)[C@@H]4CCN(C(=O)[C@H]5CC[C@H](Oc6ccc(C7CCC(=O)NC7=O)cc6)CC5)C4)CC3)nc(Nc3ccncc3F)c21 (some centres unmarked) [Example 15] tested on HPK1 (Homo sapiens).
> 85%

Report Dmax for CC(C)n1cnc2cc(-c3ccc4c(c3)N([C@H]3C[C@@H](N5CCCCC5)C3)C(=O)C43CCN(C(=O)C4(C)CCN(C(=O)C5CCN(c6ccc(C7CCC(=O)NC7=O)cn6)CC5)CC4)CC3)nc(N[C@H]3C[C@@H](C#N)C3)c21 (some centres unmarked) [Example 174] tested on HPK1 (Homo sapiens).
> 85%

Report Dmax for CC(C)n1cnc2cc(-c3ccc4c(c3)N([C@H]3C[C@@H](N5CCCCC5)C3)C(=O)C43CCN(C(=O)C4(C)CCN(C(=O)[C@H]5CC[C@H](Nc6ccc(N7CCC(=O)NC7=O)cn6)CC5)CC4)CC3)nc(NC3CC3)c21 [Example 192] tested on HPK1 (Homo sapiens).
70 to 85%
